Target: T1, human Neuropeptide S receptor, wildtype (NPSR WT) (human, UniProt Q6W5P4 1-371)
T1 construct: Stably expressed in CHO dhfr(-), HEK 293T or HEK 293 cells; also called hNPSR; human NPSR
T1 sequence: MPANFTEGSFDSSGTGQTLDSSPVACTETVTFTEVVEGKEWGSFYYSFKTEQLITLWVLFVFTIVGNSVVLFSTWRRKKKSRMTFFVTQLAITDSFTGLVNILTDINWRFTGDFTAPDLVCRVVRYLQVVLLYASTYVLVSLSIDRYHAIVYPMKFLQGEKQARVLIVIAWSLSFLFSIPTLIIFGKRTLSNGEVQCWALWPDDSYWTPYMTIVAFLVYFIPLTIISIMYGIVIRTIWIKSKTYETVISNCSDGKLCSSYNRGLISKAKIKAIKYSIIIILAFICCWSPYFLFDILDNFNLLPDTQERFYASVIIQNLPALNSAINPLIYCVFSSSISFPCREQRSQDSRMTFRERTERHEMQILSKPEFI
Experiment: saturation radioligand binding to intact CHO cells stably expressing hNPSR
Where no end group is shown, it is not given here. The star is where a group is joined. 125I = radioactive iodine-125 label on the tyrosine, [125I]*
Measurement Kind: pKd
Value format note: pKd is -log10 of concentration (mol/L); just state the number.

# input binder: SFRNGVGTGY(125I)KKTSFQRAKS (also: monoiodinated with 125I (chloramine T), Human NPS in which the residue at position 10 is replaced by tyrosine, then radioiodinated; also called Y10-NPS; the radioligand) [[125I] Y10-hNPS (monoiodinated human Y10-NPS radioligand)] ; wanted: its pKd
9.48
